assay: viability profiling in RPMI8226 myeloma cells – cell-based, resazurin fluorescence, basal, 24 h, PK04 Diversity Set, profiling panel (AID 1180); conditions: higher = more signal;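 note: RPMI8826 multiple myeloma cell line at 5000 cells per well; test concentration not given here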
Decide by z-score: equal to or exceeding 0.06 means yes (1), less means no (0).

| Compound | Assigned Class |
| --- | --- |
| Cc1ccc(S[C@]2(C(=O)NCC(C)C)CC(=O)N(Cc3ccccc3)[C@@H]2c2ccc(CO)cc2)cc1 | yes (1) |
| CC(c1ccccc1)C(O)C1C=CC2C(=O)N(c3ccccc3)C(=O)C2N1Nc1ccccc1F (configuration not stated) | yes (1) |
| COc1ccc([Si](C)(C)[C@H]2[C@H](CC(=O)N3CCC[C@H]3CO)O[C@@]3(C(=O)N(Cc4cccc(N5CCC5=O)c4)c4ccccc43)[C@@H]2C)cc1 | no (0) |
| O=C1c2ccccc2[C@@]2(Cc3ccccc3N(Cc3ccccc3)C2=O)[C@H](c2ccc(CO)cc2)N1Cc1ccccc1C(F)(F)F | no (0) |
| CCCNC(=O)[C@@]1(C)c2ccccc2C(=O)N(C(C)C)[C@H]1c1ccc(CO)cc1 | no (0) |
| C=CCOC(=O)[C@H]1[C@@H]2C(=O)O[C@@H](c3ccccc3)[C@@H](c3ccccc3)N2[C@@H](c2ccc(OCCOC(=O)[C@H]3C[C@H]4C(=O)N[C@@H](CCCC[N+](C)(C)C)C(=O)N4[C@H]3c3ccc(O)cc3)cc2)[C@]12C(=O)Nc1ccccc12 | yes (1) |
| CC(=O)NCCCC[C@@H]1NC(=O)[C@@H]2C[C@H](C(=O)NCCCCCC[N+](C)(C)C)[C@H](c3cccc(OCCO)c3)N2C1=O | no (0) |
| C=C(COC)C(=O)CC[C@H](OC(=O)c1cccnc1)c1ccccc1OCCO | no (0) |
| CC(C)(C)OC(=O)CC[C@@]1(C(N)=O)N=C(c2ccc(OCCCO)cc2)O[C@@H]1c1ccccc1N=[N+]=[N-] | yes (1) |
| COCCOC(=O)N1C(=O)[C@@]2(c3ccccc31)[C@H](c1ccc(O)cc1)N1[C@H](c3ccccc3)[C@H](c3ccccc3)OC(=O)[C@H]1[C@@H]2C(N)=O | no (0) |
| COC(=O)[C@@]1(Cc2ccc(OC)cc2)[C@H]2c3cc(C(=O)N4CCCC4)n(C[C@H](O)CO)c3C[C@H]2CN1C(=O)c1ccccc1 | no (0) |
| C=C(C)[C@@H]1CC=C(C(O)C2C=CC3C(=O)N(Cc4ccccc4)C(=O)C3N2n2cnnc2)CC1 (some centres not stated) | no (0) |
| [N-]=[N+]=NCc1ccccc1[C@H]1OC(c2ccc(OCCCO)cc2)=N[C@@]1(Cc1ccccc1)C(=O)NCC(O)CO (some centres not stated) | no (0) |
| C=CC[C@@]1(C(=O)NCCN2CCOCC2)N=C(c2ccc(OCCCO)cc2)O[C@@H]1c1ccccc1CN=[N+]=[N-] | no (0) |
| Cc1ccc(S[C@]2(C(=O)NCCCN(C)C)CC(=O)N(C(C)C)[C@@H]2c2ccc(CO)cc2I)cc1 | no (0) |
| [N-]=[N+]=Nc1ccccc1C[C@]1(C(=O)N2CCCCC2)N=C(c2ccc(OCCCO)cc2)O[C@H]1c1ccccc1N=[N+]=[N-] | no (0) |
| CC1(C)C(=O)C(c2ccccc2)=C2CN3C(=O)N(CCc4ccccc4)C(=O)C3(Cc3ccccc3)C=C21 (configuration not stated) | no (0) |
| C=CCCN(CC#C[C@H]1Oc2ccccc2S(=O)(=O)N2CCC[C@@H]12)S(=O)(=O)c1ccc(C)cc1 | no (0) |
| C=CCC(OC(C)=O)[C@@H]1[C@@H](N(Cc2ccc(-c3cccc(C(F)(F)F)c3)o2)C(=O)Cc2ccc(OC)cc2)c2cc(OCCCO)ccc2N1C(=O)Cc1ccc(OC)cc1 (some centres not stated) | yes (1) |
| COc1ccc(CCNC(=O)[C@@]2(C)c3ccccc3C(=O)N(Cc3ccccc3)[C@H]2c2ccc(CO)cc2)cc1 | yes (1) |
| COCCOC(=O)N1C(=O)[C@@]2(c3cc(C#CC4(O)CCCCCC4)ccc31)[C@H](c1ccc(O)cc1)N1[C@H](c3ccccc3)[C@H](c3ccccc3)OC(=O)[C@H]1[C@@H]2C(=O)N1CCc2cc(OC)c(OC)cc2C1 | no (0) |
| Cc1ccc(S[C@]2(C(=O)NCCCN(C)C)CC(=O)N(Cc3ccccc3)[C@@H]2c2ccc(CO)cc2)cc1 | yes (1) |
| C[C@]1(C(=O)NCC(F)(F)F)c2ccccc2C(=O)N(Cc2cc(F)cc(C(F)(F)F)c2)[C@H]1c1ccc(CO)cc1 | yes (1) |
| CCN(CC)c1ccc(N2CC=CC34O[C@@H]5/C=C\CCC(C)OC(=O)C5[C@H]3C(=O)N(CCCCCCO)[C@@H]4C2=O)cc1 (some centres not stated) | yes (1) |
| COCCCNC(=O)[C@]1(Cc2ccccc2N=[N+]=[N-])N=C(c2ccc(OCCCO)cc2)O[C@@H]1c1ccccc1CN=[N+]=[N-] | no (0) |
| COCCOC(=O)N1C(=O)[C@@]2(c3cc(C#CC4=CCCCC4)ccc31)[C@H](c1ccc(OCCO)cc1)N1[C@H](c3ccccc3)[C@H](c3ccccc3)OC(=O)[C@H]1[C@@H]2C(=O)Nc1nc2ccccc2s1 | yes (1) |
| CCCCCCC#C[Si](O[C@H](c1ccccc1)c1cn([C@H](C)c2ccccc2)nn1)(C(C)C)C(C)C | yes (1) |
